// data source = the FLAb antibody collection (doi:10.7554/elife.23156)

Listed here are variants together with their documented Kd.
B1: scFv; the commonest letter at each place (parent)
chain 1: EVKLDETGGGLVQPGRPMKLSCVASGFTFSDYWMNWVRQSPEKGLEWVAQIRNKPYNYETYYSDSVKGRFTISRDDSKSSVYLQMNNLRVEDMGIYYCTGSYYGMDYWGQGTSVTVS
chain 2: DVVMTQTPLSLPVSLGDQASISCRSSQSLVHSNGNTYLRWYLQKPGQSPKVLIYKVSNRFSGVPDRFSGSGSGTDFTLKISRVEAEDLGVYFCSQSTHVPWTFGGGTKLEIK

Variants of: B1
protocolDetails: Kd (Tite-Seq)
conditionDescription: with fluorescein; format: scFv 4-4-20, heavy + light
reportedProperty: Kd

# mutationSpec, endpointValue
measured = [
    ("chain 1 M105D", "≥ 10 µM"),
    ("chain 1 Y102W G109V", "≥ 10 µM"),
    ("chain 1 M105S D106E", "≥ 10 µM"),
    ("chain 1 Y102K Y103M", "1.14 µM"),
    ("chain 1 Y107K W108Q", "≥ 10 µM"),
    ("chain 1 S30Y D31A N35A", "≥ 10 µM"),
    ("chain 1 M34Y W36K", "≥ 10 µM"),
    ("chain 1 Y32G M34C", "≥ 10 µM"),
    ("chain 1 Y107W G109K", "≥ 10 µM"),
    ("chain 1 Y102H Y107K", "≥ 10 µM"),
    ("chain 1 G104Q G109T", "≥ 10 µM"),
    ("chain 1 M105K Y107T", "0.712 µM"),
    ("chain 1 Y107V G109E", "≥ 10 µM"),
    ("chain 1 G100E Y102G", "≥ 10 µM"),
    ("chain 1 S30I W36V V37Q", "≥ 10 µM"),
    ("chain 1 Y102K Y107H", "0.0233 µM"),
    ("chain 1 F29Y Y32R", "≥ 10 µM"),
    ("chain 1 S101D D106C W108N", "≥ 10 µM"),
    ("chain 1 Y103C G104H", "2.01 µM"),
    ("chain 1 Y103S G104N", "≥ 10 µM"),
    ("chain 1 M34I W36Q", "≥ 10 µM"),
    ("chain 1 Y102H D106Q", "≥ 10 µM"),
    ("chain 1 Y32E W33K", "≥ 10 µM"),
    ("chain 1 G100N G104W", "≥ 10 µM"),
    ("chain 1 T28L W33S", "≥ 10 µM"),
    ("chain 1 F29D W36H", "≥ 10 µM"),
    ("chain 1 D31S Y32F", "0.018 µM"),
    ("chain 1 Y103W G104F M105E", "≥ 10 µM"),
    ("chain 1 Y32S V37F", "8.13 µM"),
    ("chain 1 G100C M105F", "≥ 10 µM"),
    ("chain 1 F29D W33L", "≥ 10 µM"),
    ("chain 1 T28A Y32V", "≥ 10 µM"),
    ("chain 1 W108S G109R", "≥ 10 µM"),
    ("chain 1 M105K D106E", "3.2 µM"),
    ("chain 1 S30C W33I", "≥ 10 µM"),
]
